Examples of sequences with documented z-score follow.
Experimental protocol: Components of the Cytosolic LPS Sensing Pathway: Gene Identification via Genome-wide siRNA Screen;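 also: robust z of the log signal after scaling to non-targeting control siRNA wells of the plate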
Test parameters: RAW264.7 macrophages, IL-1a HTRF, actives lie on both sides, screened at 100 nM (by protocol), cells primed 5 h with Pam3CSK4 first
Among all 53,000 sequences or so, about 3,700 (7%) were called active. This is one part of a sample in which actives are shown more often than they occur.
Reply briefly: the number, and no unit.

In the examples that follow, each entry is paired with its recorded z-score.
residue_sequence="GCAACAAAUCAGAUUUGACTT against Dhdh" recorded_value=0.246
residue_sequence="GGAAGGAGAACAUUCCUUUTT against Ces1d" recorded_value=-0.198
residue_sequence="GUACACCAGUGGAAGCACATT against Sprr2b" recorded_value=-1.91

The sequence GCAGUUGUCACUGGCAAGUTT against Aqp2 showed z-score equal to 2.21

The sequence UUCAUGUAGGUCUACUAUUTT against Olfr203 showed z-score equal to -0.104

The sequence GCUUGUGCCGGAUAAAGGUTT against Gng3 showed z-score equal to -0.748

The sequence GGUUCAGACAAGCAUCUAGTT against Sbp showed z-score equal to -1.04

The sequence GCACAGUACCAUAACGGCUTT against Nampt showed z-score equal to -2.06

The sequence GCUCAACCCAUUCUUUGAUTT against Cep295nl showed z-score equal to 0.407

The sequence GCCCAUUUUAGUAAACGAATT against Dspp showed z-score equal to 1.87

The sequence GCCCGAAAAAGAGAACUGATT against Wbp11 showed z-score equal to 0.056

The sequence CGAGAAGUACAAAAGGGAGTT against Ccdc103 showed z-score equal to -0.768

---

Experimental protocol: Components of the Cytosolic LPS Sensing Pathway: Gene Identification via Genome-wide siRNA Screen;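 also: robust z of the log signal after scaling to non-targeting control siRNA wells of the plate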
Test parameters: RAW264.7 macrophages, IL-1a HTRF, actives lie on both sides, screened at 100 nM (by protocol), cells primed 5 h with Pam3CSK4 first
Screen size: about 53,000 sequences; about 3,700 (7%) were called active. This excerpt belongs to a sample that is enriched for actives.
Response field label takes label 1 when z-score is strictly below -0.3 and label 0 in all other cases.

residue_sequence="CGUGCAUGUGUAAGUCAGGTT against Hpvc2" category="label 0"

Qu. In the record for GCUAGGAGAACCUACAUACTT against Adcy4 , is z-score less than -0.3?
Ans. label 1

Qu. In the record for GGCAUUACAGUGUUUCUGCTT against Tgfbr1 , is z-score less than -0.3?
Ans. label 0

Qu. In the record for GCACUCAAGACCUGUAUGATT against Cldn18 , is z-score less than -0.3?
Ans. label 0

Qu. In the record for GGAGCUGAGGAAAAAGAUUTT against Uhrf1 , is z-score less than -0.3?
Ans. label 1

Qu. In the record for GGAGACAGAAUCAUAGUUATT against Sh3yl1 , is z-score less than -0.3?
Ans. label 0

Qu. In the record for GGUUUUAAUUGUUCAGACGTT against Lrrtm3 , is z-score less than -0.3?
Ans. label 0

Qu. In the record for CCCAAAGCCCUUUUAAACUTT against Hmbs , is z-score less than -0.3?
Ans. label 0

Qu. In the record for GGAACCAGUAUCCUGACAUTT against Prop1 , is z-score less than -0.3?
Ans. label 1

Qu. In the record for GGCGAUGAAGAAGUAAUUUTT against Appl2 , is z-score less than -0.3?
Ans. label 1

Qu. In the record for GGAUACUGCCAUUCAUAGGTT against Cstdc2 , is z-score less than -0.3?
Ans. label 0

Qu. In the record for GGAUCUGGAAUCACUGUUUTT against Lmnb2 , is z-score less than -0.3?
Ans. label 1

Qu. In the record for GGAUGUCUGACUCAGGUCUTT against Olfr829 , is z-score less than -0.3?
Ans. label 0
